Data origin, for the record: PubChem BioAssay AID1745844

Tested on: rodent lifetime carcinogenesis bioassay, tumor incidence TD50
ASSAY_NOTES: carcinogenic potency in animals, long-term in vivo studies, CPDB compilation (AID 1745844)
EXPERIMENTAL_PARAMETERS: mouse; strain B6C3F1; females; inhaled; site: any site (literature study); lesion: several types; types named in the paper; dosed 78 weeks; study length 154 weeks
MEASURED_PROPERTY: TD50 (mg/kg/day)
Please reply with the bare figure in mg/kg/day and do not write the unit itself.

Look up TD50: ClC=C(Cl)Cl
1320

====

System: rodent lifetime carcinogenesis bioassay, tumor incidence TD50
ASSAY_NOTES: carcinogenic potency in animals, long-term in vivo studies, CPDB compilation (AID 1745844)
EXPERIMENTAL_PARAMETERS: monkey; strain Rhesus [Macaca mulatta]; both sexes; in feed; site: stomach; lesion: adenocarcinoma; dosed 928 weeks; study length 1139 weeks
MEASURED_PROPERTY: TD50 (mg/kg/day)
Please reply with the bare figure in mg/kg/day and do not write the unit itself.

Look up TD50: CN(N=O)C(N)=O
42.8

====

Tested on: rodent lifetime carcinogenesis bioassay, tumor incidence TD50
ASSAY_NOTES: carcinogenic potency in animals, long-term in vivo studies, CPDB compilation (AID 1745844)
EXPERIMENTAL_PARAMETERS: rat; strain Wistar; both sexes; in feed; site: urinary bladder; lesion: one or several types; types not named; dosed 104 weeks; study length 104 weeks
MEASURED_PROPERTY: TD50

| STRUCTURE_NOTATION | TD50 |
| --- | --- |
| O=S(=O)(O)NC1CCCCC1 | 83900 mg/kg/day |

Look up TD50: O=C1NS(=O)(=O)c2ccccc21
125000 mg/kg/day

====

Test system: rodent lifetime carcinogenesis bioassay, tumor incidence TD50
ASSAY_NOTES: carcinogenic potency in animals, long-term in vivo studies, CPDB compilation (AID 1745844)
EXPERIMENTAL_PARAMETERS: mouse; strain Swiss; both sexes; by gavage; site: lung; lesion: one or several types; types not named; dosed 97 weeks; study length 97 weeks
MEASURED_PROPERTY: TD50

What reported TD50 corresponds to NNC(=O)c1ccncc1 on rodent lifetime carcinogenesis bioassay, tumor incidence TD50?
24.5 mg/kg/day

====

Tested on: rodent lifetime carcinogenesis bioassay, tumor incidence TD50
ASSAY_NOTES: carcinogenic potency in animals, long-term in vivo studies, CPDB compilation (AID 1745844)
EXPERIMENTAL_PARAMETERS: rat; strain Sprague-Dawley; females; i.p.; site: ear canal; lesion: carcinoma, NOS + squamous-cell carcinoma; dosed 52 weeks; study length 78 weeks
MEASURED_PROPERTY: TD50

Look up TD50: Nc1nc(=S)c2ncn([C@H]3C[C@H](O)[C@@H](CO)O3)c2[nH]1
2.1 mg/kg/day

====

Tested on: rodent lifetime carcinogenesis bioassay, tumor incidence TD50
ASSAY_NOTES: carcinogenic potency in animals, long-term in vivo studies, CPDB compilation (AID 1745844)
EXPERIMENTAL_PARAMETERS: mouse; strain B6C3F1; females; inhaled; site: duodenum + kidney + mediastinum + mesenteric lymph node + multiple organs + spleen + uterus; lesion: malignant lymphoma, NOS + malignant lymphoma, histiocytic type; dosed 102 weeks; study length 104 weeks
MEASURED_PROPERTY: TD50

What reported TD50 corresponds to C1CO1 on rodent lifetime carcinogenesis bioassay, tumor incidence TD50?
139 mg/kg/day

====

Test system: rodent lifetime carcinogenesis bioassay, tumor incidence TD50
ASSAY_NOTES: carcinogenic potency in animals, long-term in vivo studies, CPDB compilation (AID 1745844)
EXPERIMENTAL_PARAMETERS: rat; strain Fischer; males; in feed; site: urinary bladder; lesion: carcinoma, noninvasive; dosed 77 weeks; study length 77 weeks
MEASURED_PROPERTY: TD50 (mg/kg/day)
Please reply with the bare figure in mg/kg/day and do not write the unit itself.

Look up TD50: O=CNc1nc(-c2ccc([N+](=O)[O-])o2)cs1
195

====

Test system: rodent lifetime carcinogenesis bioassay, tumor incidence TD50
ASSAY_NOTES: carcinogenic potency in animals, long-term in vivo studies, CPDB compilation (AID 1745844)
EXPERIMENTAL_PARAMETERS: rat; strain Fischer 344; males; by gavage; site: any site (literature study); lesion: several types; types named in the paper; dosed 77 weeks; study length 109 weeks
MEASURED_PROPERTY: TD50 (mg/kg/day)
Please reply with the bare figure in mg/kg/day and do not write the unit itself.

Look up TD50: COc1ccc(N)c(C)c1
368

====

System: rodent lifetime carcinogenesis bioassay, tumor incidence TD50
ASSAY_NOTES: carcinogenic potency in animals, long-term in vivo studies, CPDB compilation (AID 1745844)
EXPERIMENTAL_PARAMETERS: mouse; strain B6C3F1; males; inhaled; site: forestomach; lesion: papilloma, NOS + squamous-cell papilloma; dosed 60 weeks; study length 60 weeks
MEASURED_PROPERTY: TD50

Look up TD50: C=CC=C
140 mg/kg/day

====

Below, each entry is listed with its recorded TD50.
Test system: rodent lifetime carcinogenesis bioassay, tumor incidence TD50
ASSAY_NOTES: carcinogenic potency in animals, long-term in vivo studies, CPDB compilation (AID 1745844)
EXPERIMENTAL_PARAMETERS: rat; strain Sprague-Dawley; females; by gavage; site: any site (literature study); lesion: malignant tumor; dosed 104 weeks; study length 141 weeks
Please reply with the bare figure in mg/kg/day and do not write the unit itself.

Look up TD50: Cc1cccc(C)c1
524

Look up TD50: CCc1ccccc1
1210

====

Test system: rodent lifetime carcinogenesis bioassay, tumor incidence TD50
ASSAY_NOTES: carcinogenic potency in animals, long-term in vivo studies, CPDB compilation (AID 1745844)
EXPERIMENTAL_PARAMETERS: rat; strain Fischer 344; males; in drinking water; site: skin; lesion: sebaceous adenoma; dosed 58 weeks; study length 60 weeks
MEASURED_PROPERTY: TD50

Look up TD50: Cc1cc(-c2ccc(N)c(C)c2)ccc1N
5.62 mg/kg/day

====

Tested on: rodent lifetime carcinogenesis bioassay, tumor incidence TD50
ASSAY_NOTES: carcinogenic potency in animals, long-term in vivo studies, CPDB compilation (AID 1745844)
EXPERIMENTAL_PARAMETERS: mouse; strain CDF1; females; in feed; site: lung; lesion: adenoma; dosed 84 weeks; study length 84 weeks
MEASURED_PROPERTY: TD50
Please format your answer as a value with the unit trailing.

| STRUCTURE_NOTATION | TESTED_TARGET | TD50 |
| --- | --- | --- |
| Cc1cnc2ccc3c(nc(N)n3C)c2n1 | rodent lifetime carcinogenesis bioassay, tumor incidence TD50 | 143 mg/kg/day |

Look up TD50: Cc1cc2c(nc1N)[nH]c1ccccc12
1840 mg/kg/day

====

System: rodent lifetime carcinogenesis bioassay, tumor incidence TD50
ASSAY_NOTES: carcinogenic potency in animals, long-term in vivo studies, CPDB compilation (AID 1745844)
EXPERIMENTAL_PARAMETERS: mouse; strain D2B6F1 mice; males; in feed; site: liver; lesion: hepatocellular adenoma; dosed 69 weeks; study length 69 weeks
MEASURED_PROPERTY: TD50

Look up TD50: ClC1=C(Cl)C2(Cl)C3C(Cl)C(Cl)CC3C1(Cl)C2(Cl)Cl (stereo unspecified)
1.29 mg/kg/day

====

Tested on: rodent lifetime carcinogenesis bioassay, tumor incidence TD50
ASSAY_NOTES: carcinogenic potency in animals, long-term in vivo studies, CPDB compilation (AID 1745844)
EXPERIMENTAL_PARAMETERS: rat; strain F344/DuCrj; males; in drinking water; site: liver; lesion: hepatocellular adenoma; dosed 104 weeks; study length 105 weeks
MEASURED_PROPERTY: TD50

Look up TD50: C1COCCO1
279 mg/kg/day

====

System: rodent lifetime carcinogenesis bioassay, tumor incidence TD50
ASSAY_NOTES: carcinogenic potency in animals, long-term in vivo studies, CPDB compilation (AID 1745844)
EXPERIMENTAL_PARAMETERS: rat; strain Mongrel; both sexes; in feed; site: any site (literature study); lesion: several types; types named in the paper; dosed 108 weeks; study length 108 weeks
MEASURED_PROPERTY: TD50

What reported TD50 corresponds to O=S(=O)(O)c1ccc2c(N=Nc3ccc(S(=O)(=O)O)c4ccccc34)c(O)c(S(=O)(=O)O)cc2c1 on rodent lifetime carcinogenesis bioassay, tumor incidence TD50?
632 mg/kg/day

====

System: rodent lifetime carcinogenesis bioassay, tumor incidence TD50
ASSAY_NOTES: carcinogenic potency in animals, long-term in vivo studies, CPDB compilation (AID 1745844)
EXPERIMENTAL_PARAMETERS: mouse; strain B6C3F1; females; in feed; site: liver; lesion: hepatocellular adenoma + hepatoblastoma + hepatocellular carcinoma; dosed 103 weeks; study length 104 weeks
MEASURED_PROPERTY: TD50 (mg/kg/day)
Please reply with the bare figure in mg/kg/day and do not write the unit itself.

Look up TD50: COc1ccccc1[N+](=O)[O-]
194
